Attribution: patent US20260364080A1

# experimental target: Myt1 kinase (CDK1 Thr14 phosphorylation in ACHN renal cell carcinoma cells) (Homo sapiens)
# Construct: pCDK1 Thr14 AlphaLISA read-out
# measurement notes: AlphaLISA assay, Myt1 kinase target engagement (phospho-CDK1 Thr14) in ACHN cells
# condition set: ACHN cells (marked *); 4 h treatment
pEC50: −log10 of the molar value.
measurement kind: pEC50

INSERT INTO assay_data (compound, measurement_kind, val) VALUES
  ('C=CCn1c(=O)c2cnc(Nc3ccc4c(cnn4CC(C)C)c3)nc2n1-c1cccc(OC2CCN(C)CC2)n1', 'pEC50', '> 6.70'),
  ('C=CCn1c(=O)c2cnc(Nc3ccc4c(cnn4CCCF)c3)nc2n1-c1cccc(OC2CCN(C)CC2)n1', 'pEC50', '> 6.70'),
  ('C=CCn1c(=O)c2cnc(Nc3ccc4c(c3)c(C)nn4C)nc2n1-c1cccc(OC2CCN(C)CC2)n1', 'pEC50', '6.30 to 6.70'),
  ('C=CCn1c(=O)c2cnc(Nc3ccc(Br)cc3)nc2n1-c1cccc(OC2CCN(C)CC2)n1', 'pEC50', '6.30 to 6.70'),
  ('C=CCn1c(=O)c2cnc(Nc3ccc4c(cnn4C)c3)nc2n1-c1cccc(OC2CCCN(C)CC2)n1 (centres unmarked) [Compound 361]', 'pEC50', '6.30 to 6.70'),
  ('C=CCn1c(=O)c2cnc(Nc3ccc4c(cnn4C)c3)nc2n1-c1cccc(O[C@@H]2CCN(C)[C@@H](C)C2)n1 (stereo in doubt)', 'pEC50', '> 6.70'),
  ('C=CCn1c(=O)c2cnc(Nc3ccc4nn(C(C)(C)C)cc4c3)nc2n1-c1cccc(OC2CCNCC2)n1', 'pEC50', '< 6.00'),
  ('[2H]C([2H])([2H])N1CCC(Oc2cccc(-n3c4nc(Nc5ccc6c(cnn6C(C)C)c5)ncc4c(=O)n3CC=C)n2)CC1', 'pEC50', '> 6.70'),
  ('C=CCn1c(=O)c2cnc(Nc3ccc4c(cnn4C)c3)nc2n1-c1cccc(OC2CCN(CCC)CC2)n1', 'pEC50', '6.30 to 6.70'),
  ('C=CCn1c(=O)c2cnc(Nc3ccc4nn(CC)cc4c3)nc2n1-c1cccc(OC2CCN(C)CC2)n1', 'pEC50', '> 6.70'),
  ('CN1CCC(Oc2cccc(-n3c4nc(Nc5ccc6c(ccn6C)c5)ncc4c(=O)n3C)n2)CC1', 'pEC50', '6.00 to 6.30'),
  ('CCn1c(=O)c2cnc(Nc3ccc4c(cnn4C)c3)nc2n1-c1cccc(OC2CCN(C)CC2)n1', 'pEC50', '6.00 to 6.30'),
  ('CCn1c(=O)c2cnc(Nc3ccc(-c4cnn(C)c4)cc3)nc2n1-c1cccc(OC2CCN(C)CC2)n1', 'pEC50', '> 6.70'),
  ('[2H]C([2H])([2H])c1cccc(Nc2ncc3c(=O)n(CC=C)n(-c4cccc(OC5CCN(C)CC5)n4)c3n2)c1', 'pEC50', '6.30 to 6.70');

----------
# experimental target: Wee1A kinase (CDK1 Tyr15 phosphorylation in ACHN renal cell carcinoma cells) (Homo sapiens, UniProt P30291)
# Construct: pCDK1 Tyr15 immunofluorescence read-out
# Sequence (P30291 whole entry): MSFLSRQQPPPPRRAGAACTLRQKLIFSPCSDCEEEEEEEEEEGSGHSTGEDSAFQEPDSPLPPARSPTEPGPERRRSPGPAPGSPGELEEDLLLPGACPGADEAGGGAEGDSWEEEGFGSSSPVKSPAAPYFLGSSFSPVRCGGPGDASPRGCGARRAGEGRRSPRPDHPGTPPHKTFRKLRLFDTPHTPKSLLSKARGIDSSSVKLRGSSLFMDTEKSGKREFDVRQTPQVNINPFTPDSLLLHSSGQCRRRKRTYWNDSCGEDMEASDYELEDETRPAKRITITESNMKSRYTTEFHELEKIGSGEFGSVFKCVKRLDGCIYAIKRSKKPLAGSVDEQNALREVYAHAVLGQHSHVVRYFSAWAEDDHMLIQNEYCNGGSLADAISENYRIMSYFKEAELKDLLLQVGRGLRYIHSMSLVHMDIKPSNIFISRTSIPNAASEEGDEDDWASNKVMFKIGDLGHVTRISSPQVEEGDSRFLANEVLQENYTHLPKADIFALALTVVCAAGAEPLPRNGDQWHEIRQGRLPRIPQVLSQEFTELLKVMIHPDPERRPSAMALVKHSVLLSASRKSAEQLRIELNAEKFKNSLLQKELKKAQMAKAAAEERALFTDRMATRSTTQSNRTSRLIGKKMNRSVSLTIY
# measurement notes: High-content imaging of pCdk1 Y15, Wee1A kinase target engagement in ACHN cells
# Type: cell-based
# condition set: 4 h treatment, nuclear positivity for pCdk1 Y15 vs DMSO control, read-out: CDK1 Tyr15 Phosphorylation EC50
# EC50 listing for each entry below
measurement kind: EC50

INSERT INTO measurements (compound, measurement_kind, val) VALUES
  ('C=CCn1c(=O)c2cnc(Nc3cc(Cl)cc(Br)c3)nc2n1-c1cccc(NC2CCNCC2)n1 [Compound 144]', 'EC50', '500 to 1000 nM'),
  ('CCn1c(=O)c2cnc(Nc3ccc(-c4ccccc4)cc3)nc2n1-c1cccc(OC2CCN(C)CC2)n1 [Compound 284]', 'EC50', '100 to 500 nM'),
  ('CCn1c(=O)c2cnc(Nc3ccc(Br)cc3)nc2n1-c1cccc(OC2CCNCC2)n1 [Compound 267]', 'EC50', '100 to 500 nM'),
  ('C=CCn1c(=O)c2cnc(Nc3ccc(F)cc3)nc2n1-c1ccnc(NC2CCN(C)CC2)n1 [Compound 312]', 'EC50', '< 100 nM');

----------
# experimental target: Wee1A kinase (CDK1 Tyr15 phosphorylation in ACHN renal cell carcinoma cells) (Homo sapiens, UniProt P30291)
# Construct: pCDK1 Tyr15 immunofluorescence read-out
# measurement notes: High-content imaging of pCdk1 Y15, Wee1A kinase target engagement in ACHN cells
# Format: cell-based
# condition set: 4 h treatment, nuclear positivity for pCdk1 Y15 vs DMSO control, read-out: CDK1 Tyr15 Phosphorylation EC50
Measured EC50 accompanies every entry in the list below.
measurement kind: EC50

INSERT INTO results (compound, val) VALUES
  ('C=CCn1c(=O)c2cnc(Nc3ccc(F)cc3)nc2n1-c1cccc(OC2CCCN(C)CC2)n1 (single isomer, unassigned) [Compound 351]', '< 100 nM'),
  ('CCn1c(=O)c2cnc(Nc3cccc(C)c3)nc2n1-c1cccc(OC2CCNCC2)n1 [Compound 298]', '100 to 500 nM'),
  ('C=CCn1c(=O)c2cnc(Nc3ccc(OCC4CC4)cc3)nc2n1-c1cccc(OC2CCNCC2)n1 [Compound 259]', '< 100 nM'),
  ('CCn1c(=O)c2cnc(Nc3cccc(-c4cncnc4)c3)nc2n1-c1cccc(OC2CCNCC2)n1 [Compound 366]', '500 to 1000 nM');

----------
# experimental target: Myt1 kinase (recombinant PMYT-1) (Homo sapiens)
# Construct: full length PMYT-1 was expressed by baculovirus in insect cells; purchased Invitrogen A30984; host or cells: insect cells (baculovirus)
# Sequence (Q99640 1-499): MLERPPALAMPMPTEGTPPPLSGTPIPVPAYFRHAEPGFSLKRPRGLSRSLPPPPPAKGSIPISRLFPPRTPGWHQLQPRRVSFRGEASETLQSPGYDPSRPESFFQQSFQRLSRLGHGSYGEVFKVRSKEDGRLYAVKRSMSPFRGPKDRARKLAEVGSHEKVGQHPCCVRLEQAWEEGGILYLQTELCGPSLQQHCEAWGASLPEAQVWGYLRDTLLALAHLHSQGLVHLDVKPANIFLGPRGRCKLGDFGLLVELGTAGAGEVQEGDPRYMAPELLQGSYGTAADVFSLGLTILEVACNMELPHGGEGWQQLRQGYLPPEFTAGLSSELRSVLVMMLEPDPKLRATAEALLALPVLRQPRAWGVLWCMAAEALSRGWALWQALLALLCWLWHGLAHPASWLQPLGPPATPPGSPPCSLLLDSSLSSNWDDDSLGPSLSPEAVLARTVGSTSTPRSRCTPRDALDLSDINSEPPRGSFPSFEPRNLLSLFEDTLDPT
# measurement notes: Myt1 kinase binding assay (LanthaScreen Eu Kinase Binding Assay)
# condition set: 3 nM tracer 178, 2.5 nM PMYT-1, 1 nM Eu-labeled antibody; read-out: Myt1 kinase Binding IC50
measurement kind: IC50

INSERT INTO measurements (molecule, experimental_target, measurement_kind, val) VALUES
  ('C=CCn1c(=O)c2cnc(Nc3ccc(Cl)cc3)nc2n1-c1cccc(O[C@H]2CCNC2)n1 [Compound 145]', 'Myt1 kinase (recombinant PMYT-1) (Homo sapiens)', 'IC50', '20 to 100 nM'),
  ('Cn1ccc2cc(Nc3ncc4c(=O)n(C)n(-c5cccc(OC6CCNCC6)n5)c4n3)ccc21 [Compound 336]', 'Myt1 kinase (recombinant PMYT-1) (Homo sapiens)', 'IC50', '20 to 100 nM'),
  ('C=CCn1c(=O)c2cnc(Nc3ccc4c(cnn4CC)c3)nc2n1-c1cccc(OC2CCNCC2)n1 [Compound 280]', 'Myt1 kinase (recombinant PMYT-1) (Homo sapiens)', 'IC50', '< 20 nM'),
  ('C=CCn1c(=O)c2cnc(Nc3ccc4nccn4c3)nc2n1-c1cccc(OC2CCN(C)CC2)n1 [Compound 328]', 'Myt1 kinase (recombinant PMYT-1) (Homo sapiens)', 'IC50', '20 to 100 nM'),
  ('C=CCn1c(=O)c2cnc(Nc3ccc4c(ccn4C(C)=O)c3)nc2n1-c1cccc(OC2CCN(C)CC2)n1 [Compound 392]', 'Myt1 kinase (recombinant PMYT-1) (Homo sapiens)', 'IC50', '20 to 100 nM'),
  ('C=CCn1c(=O)c2cnc(Nc3ccc4ncsc4c3)nc2n1-c1cccc(OC2CCN(C)CC2)n1 [Compound 303]', 'Myt1 kinase (recombinant PMYT-1) (Homo sapiens)', 'IC50', '< 20 nM'),
  ('C=CCn1c(=O)c2cnc(Nc3ccc(OC(F)(F)F)cc3)nc2n1-c1cccc(NC2CCNCC2)n1 [Compound 135]', 'Myt1 kinase (recombinant PMYT-1) (Homo sapiens)', 'IC50', '100 to 500 nM'),
  ('C=CCn1c(=O)c2cnc(Nc3ccc(OC)nc3)nc2n1-c1cccc(OC2CCNCC2)n1 [Compound 251]', 'Myt1 kinase (recombinant PMYT-1) (Homo sapiens)', 'IC50', '20 to 100 nM');
